Hey, just so you know, these numbers are from patent US20200289481A1.

# Assay name: Pharmacokinetic evaluation: concentration of compound 1 in plasma after single administration to SD male rats
# Format: in vivo
# Setup conditions: rat; oral administration, 5 mg/kg as compound 1, single, SD male rats, plasma
Measure name: Tmax
Please answer in the form of a number followed by its unit of measurement.

Which Tmax value is on record for CCS(=O)(=O)Nc1ncc(C(F)(F)F)cc1NC(=O)C1CCCCC1 ? 15 min

---

# Assay name: Pharmacokinetic evaluation: concentration of compound 1 in plasma after single administration to SD male rats
# Assay type: in vivo
# Setup conditions: rat; oral administration, 5 mg/kg as compound 1, single, SD male rats, plasma
Measure name: half-life (h)
Express the result in h but write the number alone.

Give its half-life value. Item: CCS(=O)(=O)Nc1ncc(C(F)(F)F)cc1NC(=O)C1CCCCC1 1.14

---

# Assay name: Pharmacokinetic evaluation: concentration of compound 1 in plasma after single administration to SD male rats
# Type: in vivo
# Setup conditions: rat, sc; subcutaneous administration, 5 mg/kg as compound 1, single, SD male rats, plasma
Measure name: Tmax (min)
Note: unit min is implicit; provide only the numeric part.

May I ask what Tmax has been recorded for CCS(=O)(=O)Nc1ncc(C(F)(F)F)cc1NC(=O)C1CCCCC1 [Compound 1 bulk powder] ? 15

---

# Assay name: Pharmacokinetic evaluation: concentration of compound 1 in plasma after single administration to SD male rats
# Assay type: in vivo
# Setup conditions: rat, sc; subcutaneous administration, 5 mg/kg as compound 1, single, SD male rats, plasma
Measure name: Cmax
Hey, just the number and the unit after it is fine.

Form field: reported Cmax of CCS(=O)(=O)Nc1ncc(C(F)(F)F)cc1NC(=O)C1CCCCC1 9600 ng/mL

---

# Assay name: Pharmacokinetic evaluation: concentration of compound 1 in plasma after single administration to SD male rats
# Type: in vivo
# Setup conditions: rat; oral administration, 5 mg/kg as compound 1, single, SD male rats, plasma
Measure name: Cmax (ng/mL)
Reply numerically in ng/mL, unit not repeated.

Given the entry CCS(=O)(=O)Nc1ncc(C(F)(F)F)cc1NC(=O)C1CCCCC1 [Compound 1 bulk powder] , report its measured Cmax. 3100
